# study target: human PPARγ (182–505aa) ligand binding domain (Homo sapiens)
# Construct: γ(182–505aa); expressed in transfected cells; host or cells: COS-7
# Sequence (P37231 182-505): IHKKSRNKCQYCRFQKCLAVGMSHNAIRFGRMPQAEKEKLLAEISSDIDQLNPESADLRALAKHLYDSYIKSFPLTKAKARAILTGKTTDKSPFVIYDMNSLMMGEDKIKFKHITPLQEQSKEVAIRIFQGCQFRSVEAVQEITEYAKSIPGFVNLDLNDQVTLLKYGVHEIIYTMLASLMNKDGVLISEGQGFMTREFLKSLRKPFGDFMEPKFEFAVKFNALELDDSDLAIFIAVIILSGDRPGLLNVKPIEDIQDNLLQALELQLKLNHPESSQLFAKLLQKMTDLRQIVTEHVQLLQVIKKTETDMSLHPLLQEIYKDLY
# test name: PPAR transfection (Gal4-LBD luciferase reporter) assay, hPPARγ
# Assay type: cell-based
# condition summary: transfected COS-7 cells, 16 hours, luciferase activity; read-out: hPPAR; EC50 γ (agonist activity)
property: EC50 (nM)

CC(Oc1cccc(CN(CCCOc2cccc(N(C)C)c2)c2nc3ccccc3o2)c1)C(=O)O (stereo not drawn)	1200
CC(Oc1cccc(CCN(CCOc2ccc(F)cc2)c2nc3ccccc3o2)c1)C(=O)O (stereo not drawn)	1200

P. CC[C@@H](Oc1cccc(CN(CCCOc2ccc(F)cc2)c2nc3ccccc3o2)c1)C(=O)O
Q. CCC(Oc1cccc(CN(CCOc2ccc(Cl)cc2)c2nc3ccccc3o2)c1)C(=O)O (stereo not drawn)
R. CCC(Oc1cccc(CCN(CCCOc2ccc(F)cc2)c2nc3ccccc3o2)c1)C(=O)O (stereo not drawn)
S. COc1ccc(OCCCN(Cc2cccc(OC(C)C(=O)O)c2)c2nc3cc(Cl)ccc3o2)cc1 (stereo not drawn)
Exercise: Sort by EC50, descending. # respond with the labels, arranged in the requested order
Solution: Q, R, S, P
(Q: 7300 nM, R: 2600 nM, S: 1600 nM, P: 940 nM)
